Settings: in ethanol, 310.65 K
MEASURED_QUANTITY: solubility (mole fraction)
Numbers only.

What solubility (mole fraction) value was documented for this compound, Cc1ccc(N)c([N+](=O)[O-])c1 ? 0.0289

====

Details: in DMF, 305.65 K
MEASURED_QUANTITY: solubility (mole fraction)
Numbers only.

What solubility (mole fraction) value was documented for this compound, Cc1ccc(N)c([N+](=O)[O-])c1 ? 0.206

====

Conditions: in 1,4-dioxane, 293.15 K
MEASURED_QUANTITY: solubility (mole fraction)
One number for each entry.

What solubility (mole fraction) value was documented for this molecule, Cc1ccc(N)c([N+](=O)[O-])c1 ? 0.0637

====

Details: in isopropanol, 295.65 K
MEASURED_QUANTITY: solubility (mole fraction)
Give bare numbers.

What solubility (mole fraction) value was documented for this compound, Cc1ccc(N)c([N+](=O)[O-])c1 ? 0.0192

====

Conditions: in 1,2-dichloroethane, 290.65 K
MEASURED_QUANTITY: solubility (mole fraction)
One number for each entry.

What solubility (mole fraction) value was documented for this molecule, Cc1ccc(N)c([N+](=O)[O-])c1 ? 0.0468

====

Details: in n-propanol, 300.65 K
MEASURED_QUANTITY: solubility (mole fraction)
One number for each entry.

What solubility (mole fraction) value was documented for this molecule, Cc1ccc(N)c([N+](=O)[O-])c1 ? 0.0237

====

Details: in acetonitrile, 290.65 K
MEASURED_QUANTITY: solubility (mole fraction)
One number for each entry.

What solubility (mole fraction) value was documented for this compound, Cc1ccc(N)c([N+](=O)[O-])c1 ? 0.0447

====

Details: in methanol, 283.15 K
MEASURED_QUANTITY: solubility (mole fraction)
Numbers only.

What solubility (mole fraction) value was documented for this compound, Cc1ccc(N)c([N+](=O)[O-])c1 ? 0.0104

====

Conditions: in ethyl acetate, 298.15 K
MEASURED_QUANTITY: solubility (mole fraction)
Answers are plain numbers.

What solubility (mole fraction) value was documented for this compound, Cc1ccc(N)c([N+](=O)[O-])c1 ? 0.128

====

Settings: in n-butanol, 290.65 K
MEASURED_QUANTITY: solubility (mole fraction)
One number for each entry.

What solubility (mole fraction) value was documented for this molecule, Cc1ccc(N)c([N+](=O)[O-])c1 ? 0.0197

====

Conditions: in toluene, 305.65 K
MEASURED_QUANTITY: solubility (mole fraction)

What solubility (mole fraction) value was documented for this compound, Cc1ccc(N)c([N+](=O)[O-])c1 ? 0.0343

The measurements presented in this section are drawn from BigSolDB 2.1.
